- testedOn: T1, Avi/His-HuIL18BPa (recombinant human IL-18BP isoform A with Avi and poly-His tags) (human, biotinylated with BirA on the Avi tag in some assays)
- T1 construct: also called human IL-18BP-Avi-His
- T1 chain: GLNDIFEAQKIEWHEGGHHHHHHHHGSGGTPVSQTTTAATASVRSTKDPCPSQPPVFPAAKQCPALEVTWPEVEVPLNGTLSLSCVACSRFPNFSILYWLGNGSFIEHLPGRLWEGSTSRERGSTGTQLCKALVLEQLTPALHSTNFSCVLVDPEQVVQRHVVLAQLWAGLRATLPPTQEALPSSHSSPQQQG
- assayOverview: SPR Biacore T200, IgG captured on Protein A/G
metric: kon (M⁻¹ s⁻¹)
Please state the figure in M⁻¹ s⁻¹; there is no need to write the unit.

INSERT INTO assay_data (binder, metric, valueobserved) VALUES
  ('anti-IL-18BP antibody variant BP-04.05 (antibody, V domains shown) VH: QVQLVQSGAEVKKPGASVKVSCKASGYTFTDYDMHWVRQAPGQGLEWMGIISTYYGVVSYAQKKQGRVTMTRDKSTSTVYMELSSLRSEDTAVYYCARSGTYYYGTRESHAFDYWGQGTLVTVSS VL: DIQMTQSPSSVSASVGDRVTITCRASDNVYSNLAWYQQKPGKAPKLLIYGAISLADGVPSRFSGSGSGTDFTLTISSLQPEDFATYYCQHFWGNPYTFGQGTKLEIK', 'kon', 510000),
  ('anti-IL-18BP antibody variant BP-04.25 (antibody, V domains shown) VH: QVQLVQSGAEVKKPGASVKVSCKASGYTFTDYDMHWVRQAPGQGLEWMGIYSTYYGDVSYAQKFQGRVTMTRDKSTSTVYMELSSLRSEDTAVYYCARSGTYNYGTRESHALDYWGQGTLVTVSS VL: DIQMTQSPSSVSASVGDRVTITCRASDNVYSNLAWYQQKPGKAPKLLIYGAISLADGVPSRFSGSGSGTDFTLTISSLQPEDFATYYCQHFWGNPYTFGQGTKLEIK', 'kon', 300000),
  ('anti-IL-18BP antibody variant BP-04.07 (antibody, V domains shown) VH: QVQLVQSGAEVKKPGASVKVSCKASGYTFTDYDMHWVRQAPGQGLEWMGIISTYYGVVSYAQKKQGRVTMTRDKSTSTVYMELSSLRSEDTAVYYCARSGTYNYGTRESHALDYWGQGTLVTVSS VL: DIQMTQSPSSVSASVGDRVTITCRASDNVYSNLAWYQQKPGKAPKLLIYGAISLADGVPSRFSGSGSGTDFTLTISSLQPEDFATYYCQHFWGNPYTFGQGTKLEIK', 'kon', 350000),
  ('anti-IL-18BP antibody variant BP-04.15 (antibody, V domains shown) VH: QVQLVQSGAEVKKPGASVKVSCKASGYTFTDYDMHWVRQAPGQGLEWMGIISTYYGDVSYAQKFQGRVTMTRDKSTSTVYMELSSLRSEDTAVYYCARSGTYNYGTRESHPLDYWGQGTLVTVSS VL: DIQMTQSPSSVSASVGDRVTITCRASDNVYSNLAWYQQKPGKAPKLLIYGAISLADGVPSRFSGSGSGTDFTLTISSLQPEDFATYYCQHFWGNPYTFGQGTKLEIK', 'kon', 240000),
  ('anti-IL-18BP antibody variant BP-04.09 (antibody, V domains shown) VH: QVQLVQSGAEVKKPGASVKVSCKASGYTFTDYDMHWVRQAPGQGLEWMGIYSTYYGVVSYAQKFQGRVTMTRDKSTSTVYMELSSLRSEDTAVYYCARSGTYYYGTRESHAFDYWGQGTLVTVSS VL: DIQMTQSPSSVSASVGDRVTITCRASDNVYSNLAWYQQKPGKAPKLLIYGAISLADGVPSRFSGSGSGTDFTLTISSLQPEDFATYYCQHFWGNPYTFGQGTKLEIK', 'kon', 530000);

Summary for this binder, anti-IL-18BP antibody variant BP-04.24 (antibody, V domains shown) VH: QVQLVQSGAEVKKPGASVKVSCKASGYTFTDYDMHWVRQAPGQGLEWMGIYSTYYGDVSYAQKFQGRVTMTRDKSTSTVYMELSSLRSEDTAVYYCARSGTYYYGTRESHPLDYWGQGTLVTVSS VL: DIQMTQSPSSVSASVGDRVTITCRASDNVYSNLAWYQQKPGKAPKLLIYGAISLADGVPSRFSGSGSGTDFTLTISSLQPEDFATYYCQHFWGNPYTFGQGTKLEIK : kon is 290000

Summary for this binder, anti-IL-18BP antibody variant BP-04.03 (antibody, V domains shown) VH: QVQLVQSGAEVKKPGASVKVSCKASGYTFTDYDMHWVRQAPGQGLEWMGIISTYYGDVSYAQKFQGRVTMTRDKSTSTVYMELSSLRSENTAVYYCARSGTYYYGTREQHALDYWGQGTLVTVSS VL: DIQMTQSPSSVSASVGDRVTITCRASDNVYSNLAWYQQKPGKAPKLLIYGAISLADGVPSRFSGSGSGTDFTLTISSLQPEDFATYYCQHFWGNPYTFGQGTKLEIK : kon is 470000

Summary for this binder, anti-IL-18BP antibody variant BP-04.08 (antibody, V domains shown) VH: QVQLVQSGAEVKKPGASVKVSCKASGYTFTDYDMHWVRQAPGQGLEWMGIYSTYYGDVSYAQKKQGRVTMTRDKSTSTVYMELSSLRSEDTAVYYCARSGTYNYGTRESHALDYWGQGTLVTVSS VL: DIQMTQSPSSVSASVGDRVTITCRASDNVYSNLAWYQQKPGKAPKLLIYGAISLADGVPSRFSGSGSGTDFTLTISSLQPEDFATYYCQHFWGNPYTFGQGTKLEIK : kon is 210000

Summary for this binder, anti-IL18BP antibody BP-04 (antibody, V domains shown, also called BP-04 (hybridoma); BP-04 (parental)) VH: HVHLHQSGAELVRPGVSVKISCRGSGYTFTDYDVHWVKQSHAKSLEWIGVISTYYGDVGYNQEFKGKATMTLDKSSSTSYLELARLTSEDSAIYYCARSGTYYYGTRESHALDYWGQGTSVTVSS VL: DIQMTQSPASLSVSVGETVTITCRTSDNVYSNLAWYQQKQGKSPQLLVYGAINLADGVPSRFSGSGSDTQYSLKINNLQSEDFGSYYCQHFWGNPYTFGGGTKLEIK : kon is 580000

Summary for this binder, anti-IL-18BP antibody variant BP-04.28 (antibody, V domains shown) VH: QVQLVQSGAEVKKPGASVKVSCKASGYTFTDYDMHWVRQAPGQGLEWMGIISTYYGDVSYAQKFQGRVTMTRDKSTSTVYMELSSLRSEDTAVYYCARSGTYYYGTRESHPLDYWGQGTLVTVSS VL: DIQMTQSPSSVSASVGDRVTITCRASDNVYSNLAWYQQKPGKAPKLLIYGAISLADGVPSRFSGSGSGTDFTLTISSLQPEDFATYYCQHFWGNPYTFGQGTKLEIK : kon is 410000

Reference source: patent US20250333523A1
